Target: Integrin alpha4/beta1 (Homo sapiens)
Assay: Agonist activity at alpha4beta1 integrin receptor in human Jurkat E6.1 cells assessed as inhibition of fibronectin-induced cell adhesion pre-incubated for 30 mins followed by 30 mins incubation in fibronectin coated wells by fluorescence plate reader assay
value type: EC50

Can you look up the measured EC50 of Cc1ccccc1NC(=O)N1C(=O)CC1CC(=O)NCC(=O)O (stereo unspecified) for me?
> 5 µM

* * *

Molecular target: Integrin alpha4/beta1 (Homo sapiens)
Assay: Agonist activity at alpha4beta1 integrin receptor in human Jurkat E6.1 cells assessed as inhibition of vascular cell adhesion molecule 1-induced cell adhesion pre-incubated for 30 mins followed by 30 mins incubation in vascular cell adhesion molecule 1 coated wells by fluorescence plate reader assay
pEC50: −log10 of the molar value.
value type: pEC50

Return reported pEC50; argument: Cc1ccccc1NC(=O)N1C(=O)CC1CC(=O)NCC(=O)O (stereo unspecified)
< 5.30

* * *

Biological target: Integrin alpha5/beta1 (Homo sapiens)
Test: Agonist activity at alpha5beta1 integrin receptor in human K562 cells assessed as inhibition of fibronectin-induced cell adhesion pre-incubated for 30 mins followed by 1 hr incubation in fibronectin coated wells by fluorescence plate reader assay
pEC50: −log10 of the molar value.
value type: pEC50

What value of pEC50 has been recorded for this entry: Cc1ccccc1NC(=O)N1C(=O)CC1CC(=O)O (stereo unspecified)
< 5.30

The reported numbers originate from BindingDB's records for doi:10.1021/acs.jmedchem.2c02098.
